target: pooled human IgG (human IgG1, 2, 3 and 4)
Would you kindly list Enzyme Activity Endpoint Assay: Fc for each of these proteins?
Give bare numbers, in ng/µL.

>>> recorded_value("PRT-471 (protein) MVTSVWTKGVTPPTDFIYGEDVLHAPYKAGQGWYDITKAFDGGDDLLCGAATAGNMLHWWFDQNKEQIENYLKKHPEKQKINFNGEQMFDVKEAIDTKDSQTNSELFNYFKEKAFPYLSTKHLGVFPDHVIDMFINGYRLSLTNHGPTPVKRGSKDPRGGIFDAVFTRGDQSKLLTNRHDFKEKTLKEISDLIKQELTEGKALGISHTYANVRINHVINLWGADFDAEGNLEAIYVTDSDSNASIGMKKYFVGVNSNGKVAISAKEIEEDNIGAQVLGLFTLSTGQDIWNQTNLEHHHHHH")
357
>>> recorded_value("PRT-246 (protein) MVTSVWTKGVTPPANFTQGEDVFHAPYVANQGWYDITKLFNGKDDLLCGAATAGNMLHWWFDQNKDQIKRYLEEHPEKQKINFNGEQMFDVKEAIDTKNHQLDSKLFDYFKEKAFPYLSTKHLGVFPDHVIDMFINGYRLSLTNHGPTPVKEGSKDPRGGIFDAVFTRGDQSKLLTSRHDFKEKNLKEISDLIKKELTEGKALGLSHTYANVRINHVINLWGADFDSNGNLKAIYVTDSDSNPSIGMKKYFVGVNSSGKVAISAKEIKEDNIGAQVLGLFTLSTGQDSWNQTN")
348
>>> recorded_value("PRT-483 (protein) MVTSVWTKGVTPPTDFIKGEDVFHAPYKAGQGWYDITKTFNGKDNLLCGAATAGNMLHWWFDQNKDQIEAYLKEHPEKQKIIFNNQELFDLKAAIDTKDDQTNSKLFEYFKEKAFPYLSTKHLGVFPDHVLDMFINGYRLSLTNHGPTPVKEGSKDKRGGIFDAVFTRGVQSKLLTSRHDLKNKTLKEISDLIKQELTEGKALALSHTYANVRINHVINLWGADFDSNGNLEAIYVTDSDTNASIGMKKYFVGVNSAGKVAISAKEIEDDNIGAQVLGLFTLSTGQDIWNQTNLEHHHHHH")
459

Query protein follows.
Challenge: Returns the measured Enzyme Activity Endpoint Assay: Fc for the input protein. Input: PRT-545 (protein) MANQEIRYSEETPKTITSVWTKGVTPPTDFIKNEDVLHAPYIANQGWYDITKTFNGKDDLLCGAATAGNMLHWWFDQNKEEIERYLKKHPEKQKINFNGEQMFDVKEAIDTKDSQTDSALFEYFKDKAFPYLSTKHLGVFPDHVIDMFINGYRLSLTNHGPTPVKRGTKDPRGGIFDAVFTRGDQSKLLTSRHDFKEKTLKEISDLIKQELTEGKALGLSHTYANVRINHVINLWGADFDSEGNLEAIYVTDSDSNASIGMKKYYVGVNSAGKVAISAKEIEGDNIGAQVLGLFTLSTGQDIWEQTNLEHHHHHH
Response given: 435
